// provenance: ChEMBL document CHEMBL3988442

# assayed-target: Chromo domain-containing protein 1 (Saccharomyces cerevisiae (strain ATCC 204508 / S288c) (Baker's yeast)) (UniProt P32657)
# Sequence (P32657 whole entry, the tested form may be a part): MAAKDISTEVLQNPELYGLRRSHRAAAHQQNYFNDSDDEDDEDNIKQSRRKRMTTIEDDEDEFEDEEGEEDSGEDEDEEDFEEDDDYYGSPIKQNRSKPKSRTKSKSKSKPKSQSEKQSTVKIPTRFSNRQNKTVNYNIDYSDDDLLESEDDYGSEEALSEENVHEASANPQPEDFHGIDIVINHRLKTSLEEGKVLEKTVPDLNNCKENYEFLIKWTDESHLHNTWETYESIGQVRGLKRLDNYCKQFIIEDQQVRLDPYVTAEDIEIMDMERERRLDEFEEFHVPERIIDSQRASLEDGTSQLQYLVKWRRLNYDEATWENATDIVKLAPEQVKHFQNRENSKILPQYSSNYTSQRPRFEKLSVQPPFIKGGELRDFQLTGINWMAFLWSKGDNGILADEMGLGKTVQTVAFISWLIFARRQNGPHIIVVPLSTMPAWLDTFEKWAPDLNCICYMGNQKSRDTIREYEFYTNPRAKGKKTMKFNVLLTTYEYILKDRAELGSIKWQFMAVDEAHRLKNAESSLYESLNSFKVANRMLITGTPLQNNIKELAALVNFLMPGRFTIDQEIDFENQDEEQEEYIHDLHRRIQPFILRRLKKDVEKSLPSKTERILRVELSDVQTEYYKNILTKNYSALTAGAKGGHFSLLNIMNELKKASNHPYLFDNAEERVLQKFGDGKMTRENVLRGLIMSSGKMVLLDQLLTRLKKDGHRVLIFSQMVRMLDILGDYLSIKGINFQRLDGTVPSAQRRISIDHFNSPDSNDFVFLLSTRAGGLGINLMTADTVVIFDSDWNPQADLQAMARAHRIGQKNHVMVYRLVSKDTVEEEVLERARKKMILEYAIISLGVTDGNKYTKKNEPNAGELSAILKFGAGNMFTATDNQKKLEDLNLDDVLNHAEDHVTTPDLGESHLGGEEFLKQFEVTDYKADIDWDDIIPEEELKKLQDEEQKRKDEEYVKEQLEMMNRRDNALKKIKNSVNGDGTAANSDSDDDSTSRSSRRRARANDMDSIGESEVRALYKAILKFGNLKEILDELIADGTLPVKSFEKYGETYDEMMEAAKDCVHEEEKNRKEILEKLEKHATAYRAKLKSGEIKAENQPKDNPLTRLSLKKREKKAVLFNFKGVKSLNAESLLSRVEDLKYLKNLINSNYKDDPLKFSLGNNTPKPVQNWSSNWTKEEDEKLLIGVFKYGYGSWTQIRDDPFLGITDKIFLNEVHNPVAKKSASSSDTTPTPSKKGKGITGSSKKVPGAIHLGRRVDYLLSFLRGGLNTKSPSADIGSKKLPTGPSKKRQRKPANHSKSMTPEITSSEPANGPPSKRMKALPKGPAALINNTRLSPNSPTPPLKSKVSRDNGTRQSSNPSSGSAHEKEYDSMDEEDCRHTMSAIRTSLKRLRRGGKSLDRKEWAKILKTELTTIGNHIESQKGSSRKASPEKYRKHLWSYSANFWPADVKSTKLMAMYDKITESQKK
# method-summary: ScCHD-1 Enzyme Inhibition Assay; further: in the data most compounds retested in dose-response had high values
# Type: functional
# Parameters: scale not given: direction of the effect not stated beside the values
# condition-info: 30 µM
outcome-measure: Percent Effect (%)
Field: numeric (%). Do not append units.

Input Cc1nc(-c2ccccc2F)sc1C(=O)N1CCN(C)CC1 . Output Percent Effect: -3.18

Input COCCN1CC[C@]2(CN(C(=O)c3cccs3)C[C@H]2C)C1=O . Output Percent Effect: 0.0651

Input Cc1ccc(CC(=O)N2CCCCC2c2nc(C)cs2)cn1 (stereo unspecified) . Output Percent Effect: -12.2

Input CN(C)S(=O)(=O)N1CCC[C@]2(C[C@@H](Oc3ccccn3)CO2)C1 . Output Percent Effect: -6.01

Input CCN1CCN(c2ccc(CNC(=O)c3ccc(Cl)o3)cn2)CC1 . Output Percent Effect: -10.4

Input O=C(Nc1cccc(CNCc2cccs2)c1)C1CCCC1 . Output Percent Effect: -4.46

Input CCc1ccc(OCC(O)CN2CCC(O)CC2)cc1 (stereo unspecified) . Output Percent Effect: -19

Input CC(C)Cc1noc(CN2CCOCC2)n1 . Output Percent Effect: -7.16

Input COc1ccc(F)cc1C(C)NC(=O)c1nnc(C)s1 (stereo unspecified) . Output Percent Effect: 3.82

Input CCS(=O)(=O)N1C[C@@H](OCc2cccnc2)[C@H]2OCCC[C@H]21 . Output Percent Effect: 0.0373

Input CCC1CCCCCN1C(=O)c1nnc2ccccc2c1N (stereo unspecified) . Output Percent Effect: -1.43

Input CCNC(=O)N1CCN(C(=O)c2cc(Cl)cc3cccnc23)CC1 . Output Percent Effect: 2.64

Input Cc1cccc(-n2c(C)cc(C(=O)N3CCn4c(C)nnc4C3)c2C)c1 . Output Percent Effect: -0.518

Input CN(CCC#N)C(=O)CN1CCCC1c1ccsc1 (stereo unspecified) . Output Percent Effect: 7.91

Input CS(=O)(=O)N1CCC(NC(=O)COc2ccc(Cl)c(Cl)c2)CC1 . Output Percent Effect: -8.55

Input COCCC(=O)N1C[C@H]2CN(Cc3cccc(C)n3)C(=O)[C@H]2C1 . Output Percent Effect: -4.73

Input CS(=O)(=O)c1ccc(NC(=O)NCc2ccc3c(c2)CCC3)cn1 . Output Percent Effect: -1.11

Input O=C(COc1coc(CN2CCCCC2)cc1=O)NCc1ccccc1 . Output Percent Effect: -5.41

Input COCc1nc(C(=O)NS(=O)(=O)c2cc(F)ccc2F)cs1 . Output Percent Effect: 4.47

Input CCC(NC(=O)C1CCN(S(=O)(=O)N(C)C)CC1)c1ccc(C)c(C)c1 (stereo unspecified) . Output Percent Effect: -0.385

Input Cc1c(F)cccc1CN1CCn2nc(CNC(=O)N(C)C)cc2C1 . Output Percent Effect: -7.8

Input CN(C)c1cc2c(nn1)CCN(C(=O)Cc1noc3ccccc13)C2 . Output Percent Effect: -2.37

Input CC(=O)NCc1ccc(C(=O)N2CCCCC2Cn2cccn2)o1 (stereo unspecified) . Output Percent Effect: -6.26

Input Cc1nccn1-c1cccc(C2CCCN(C(=O)c3cc[nH]n3)C2)n1 (stereo unspecified) . Output Percent Effect: -7.28

Input Cc1cccn2c(=O)cc(CN3CCCCC3Cn3cncn3)nc12 (stereo unspecified) . Output Percent Effect: -6.48

Input Cc1noc(C)c1CN1CCc2nn(C(C)C)c(=O)cc2C1 . Output Percent Effect: -9.78

Input COc1ccc2c(c1)CCCN2Cc1nc2c(cnn2C)c(=O)[nH]1 . Output Percent Effect: -5.55

Input COCC(=O)N1CC[C@@H](O)[C@@H]1Cc1ccccc1 . Output Percent Effect: -0.374

Input CC(C)N(C)C(=O)C1=NOC2(CCN(C(=O)c3ccncc3)C2)C1 (stereo unspecified) . Output Percent Effect: -0.614

Input O=C(Cc1cccnc1)N1CCC(OCc2ccccc2)CC1 . Output Percent Effect: 101

Input CN(C)CCN1CCC2(CCN(C(=O)c3ccc(F)cc3)CC2)C1=O . Output Percent Effect: -6.97

Input COc1ncccc1C(=O)N1CCn2c(COCC3CC3)cnc2C1C (stereo unspecified) . Output Percent Effect: 1.11

Input Cc1ccc(C(=O)NS(=O)(=O)c2cccc3cnccc23)c(=O)[nH]1 . Output Percent Effect: 2.35

Input Cc1cnc(Nc2nccnc2C2CCN(C)CC2)s1 . Output Percent Effect: -6.78

Input CCOc1ncccc1NC(=O)N1CCCCCC1 . Output Percent Effect: 1.09

Input O=C(CN1CCc2cncnc2C1)NCCOc1ccccc1 . Output Percent Effect: -2.98

Input c1cnc2c(c1)cc([C@H]1CCCO1)n2CCN1CCOCC1 . Output Percent Effect: -13.8

Input Cc1ccccc1S(=O)(=O)N1CCCCC1c1ccn[nH]1 (stereo unspecified) . Output Percent Effect: -21.7

Input Cc1ccc(CN2CCC3(CC2)OC(C(=O)N(C)C)c2ccccc23)o1 (stereo unspecified) . Output Percent Effect: -8.66

Input CCn1nnc2c1C(COC)CN(Cc1cccs1)C2 (stereo unspecified) . Output Percent Effect: -4.09

Input Cc1cnn(CC2CCN(CC(O)COc3ccc(F)cc3)CC2)c1 (stereo unspecified) . Output Percent Effect: -2.59

====

# assayed-target: Arginase-2, mitochondrial (Homo sapiens)
# method-summary: in vitro enzyme assay to detect the production of urea directly proportional to the activity of Arginase II; further: in the data most compounds retested in dose-response had high values
# Assay type: functional
# Parameters: scale not given: direction of the effect not stated beside the values
# condition-info: 33.3 µM
outcome-measure: Percent Effect (%)
Field: numeric (%). Do not append units.

Input Cc1cc(C)n(C2CN(CC(=O)NCC(C)(C)N3CCOCC3)C2)n1 . Output Percent Effect: -0.645

Input CCN(CC)c1ccc(NS(=O)(=O)c2cncc(F)c2)cn1 . Output Percent Effect: -5.99

Input COc1ncc(CN2CC[C@@](C)(O)[C@H](Oc3cccc(F)c3)C2)cn1 . Output Percent Effect: -1.33

Input O=C(c1ccccn1)N1Cc2nccn2CC(COc2cccnc2)C1 (configuration not stated) . Output Percent Effect: -54.7

Input CCOc1cc(C(=O)N2CCCC(n3cncn3)C2)ccc1C (configuration not stated) . Output Percent Effect: 1.66

Input Cc1ccc(CN2CCC(c3nnc(CN4CCCCC4)n3C)CC2)o1 . Output Percent Effect: -0.35

Input CC(=O)Nc1nc(C(=O)Nc2ccc(F)cc2)cs1 . Output Percent Effect: -15.4

====

Kindly state Percent Effect for each of the entries shown.
# assayed-target: Sialic acid-binding Ig-like lectin 9 (Homo sapiens) (UniProt Q9Y336)
# Sequence (Q9Y336 whole entry): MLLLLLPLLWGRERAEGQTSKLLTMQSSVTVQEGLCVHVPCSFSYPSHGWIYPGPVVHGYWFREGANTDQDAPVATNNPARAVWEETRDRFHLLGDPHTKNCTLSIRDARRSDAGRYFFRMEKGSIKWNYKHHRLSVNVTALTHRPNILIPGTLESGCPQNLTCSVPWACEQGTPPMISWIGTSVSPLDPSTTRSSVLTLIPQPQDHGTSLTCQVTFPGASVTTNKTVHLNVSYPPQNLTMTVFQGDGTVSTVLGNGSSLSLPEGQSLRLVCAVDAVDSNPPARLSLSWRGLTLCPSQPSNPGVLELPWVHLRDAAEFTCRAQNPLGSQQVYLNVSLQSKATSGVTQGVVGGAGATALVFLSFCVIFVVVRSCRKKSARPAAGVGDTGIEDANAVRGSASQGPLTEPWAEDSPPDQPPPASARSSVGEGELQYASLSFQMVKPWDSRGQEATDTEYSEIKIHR
# method-summary: Hs-Siglec9 ALPHAscreen SOP 20170721
# Design: scale not given: direction of the effect not stated beside the values
# condition-info: 10 µM
Field: numeric (%). Do not append units.

Measured Percent Effect for this entry Cn1nc(C2CCCN(Cc3cccc(F)c3)C2)c2nccnc21 (stereo unspecified) on Sialic acid-binding Ig-like lectin 9 (Homo sapiens) (UniProt Q9Y336): 14.6

Measured Percent Effect for this entry CC(C)C(=O)N1CCCC(c2cc(C(F)F)n3ncnc3n2)C1 (stereo unspecified) on Sialic acid-binding Ig-like lectin 9 (Homo sapiens) (UniProt Q9Y336): -5.54

Measured Percent Effect for this entry Cc1ccc(C(=O)N2CCC3(CC2)COC(COc2ccccn2)C3)o1 (stereo unspecified) on Sialic acid-binding Ig-like lectin 9 (Homo sapiens) (UniProt Q9Y336): 6.32

Measured Percent Effect for this entry O=C(c1ccccn1)N1CCN(c2ccc(-c3cccnc3)nn2)CC1 on Sialic acid-binding Ig-like lectin 9 (Homo sapiens) (UniProt Q9Y336): 4.87

Measured Percent Effect for this entry Cc1cnccc1N1CCCN(C(=O)CCCS(N)(=O)=O)CC1 on Sialic acid-binding Ig-like lectin 9 (Homo sapiens) (UniProt Q9Y336): 1.68

Measured Percent Effect for this entry CCc1nc(CN(CC(N)=O)C(C)C)cs1 on Sialic acid-binding Ig-like lectin 9 (Homo sapiens) (UniProt Q9Y336): 3.91

Measured Percent Effect for this entry Cc1cc(CN(C)C(=O)c2ccc(Cl)c(S(C)(=O)=O)c2)no1 on Sialic acid-binding Ig-like lectin 9 (Homo sapiens) (UniProt Q9Y336): 7.77

Measured Percent Effect for this entry Cc1c(Br)cccc1C(=O)NC(C)CN1CCCC1=O (stereo unspecified) on Sialic acid-binding Ig-like lectin 9 (Homo sapiens) (UniProt Q9Y336): -6.12

Measured Percent Effect for this entry CC(C)N1CCN(C(=O)Nc2cnn(CC(N)=O)c2)CC1 on Sialic acid-binding Ig-like lectin 9 (Homo sapiens) (UniProt Q9Y336): -17.7

Measured Percent Effect for this entry COCC(=O)N1CCN(Cc2coc(-c3cccc(F)c3)n2)CC1 on Sialic acid-binding Ig-like lectin 9 (Homo sapiens) (UniProt Q9Y336): 4.95

Measured Percent Effect for this entry CC(C)CN1CCN(C(=O)NCc2cccnc2-n2cccn2)CC1 on Sialic acid-binding Ig-like lectin 9 (Homo sapiens) (UniProt Q9Y336): -3.1

Measured Percent Effect for this entry Fc1ccc(CN2CCCC2Cn2cccn2)c2ncccc12 (stereo unspecified) on Sialic acid-binding Ig-like lectin 9 (Homo sapiens) (UniProt Q9Y336): 11.6

Measured Percent Effect for this entry c1cc(CN2CCCC(c3noc(C4CC4)n3)C2)no1 (stereo unspecified) on Sialic acid-binding Ig-like lectin 9 (Homo sapiens) (UniProt Q9Y336): 9.04

Measured Percent Effect for this entry CCc1nnc2n1CCN(CC(=O)Nc1cc(C(C)(C)C)nn1C)C2 on Sialic acid-binding Ig-like lectin 9 (Homo sapiens) (UniProt Q9Y336): 0.565

Measured Percent Effect for this entry CC(C)c1nc2c(n1C)CCN(CC(=O)Nc1nccs1)C2 on Sialic acid-binding Ig-like lectin 9 (Homo sapiens) (UniProt Q9Y336): -4.17

Measured Percent Effect for this entry CN(C)S(=O)(=O)N1CC[C@]2(C[C@H](Oc3cccnc3)CO2)C1 on Sialic acid-binding Ig-like lectin 9 (Homo sapiens) (UniProt Q9Y336): -1.9
